Numbers sourced from the supplement of paper PMC6757056.

B1: library; a variant is named by its letters at N, in order (parent)
chain: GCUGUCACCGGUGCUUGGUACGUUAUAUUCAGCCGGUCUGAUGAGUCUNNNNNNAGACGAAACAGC

# Variants of: B1
# protocol.text: FACS-Seq fitted mean relative fluorescence mCherry/BFP with ligand (log10 relative fluorescence); HEK293T overexpressing SLC46A1; ligand concentration (+) FACS-Seq: 6 mM; higher = higher reporter protein expression
# reported.conditions: with (6R,S)-folinic acid; ligand present: yes
Think of 0.2 as a floor: if FACS-Seq fitted mean (log10) stands on it or above, it is 1 (yes); beneath it, 0 (no).

AAAAUU | 1 (yes)
AGAUAA | 0 (no)
UCAACC | 1 (yes)
GAUAGG | 1 (yes)
UCCGCG | 1 (yes)
GAGUCA | 0 (no)
CGGUAA | 0 (no)
UGCUAA | 1 (yes)
AAGGGU | 0 (no)
CCAGAU | 0 (no)
UGUGGG | 1 (yes)
UGCAGG | 0 (no)
GAUACA | 1 (yes)
CAAUAA | 1 (yes)
AGCACU | 0 (no)
GACUAU | 1 (yes)
UUUACC | 1 (yes)
GUUAUG | 1 (yes)
CAGUCG | 1 (yes)
AAGUGU | 1 (yes)
UACGAG | 1 (yes)
ACAGCA | 1 (yes)
